Run description: Stability in human plasma incubated for 120 mins
Assay type: ADME, cell-free
Recorded conditions: read-out: Stabilty
Measured attribute: remaining at 2 h (%)
API: value field is a number in %; no unit string.

Compound: O=C(/C=C/c1cccc2ccccc12)NC(Cn1ccnc1)C(=O)Nc1ccccc1 (configuration not stated)
remaining at 2 h, %: 84.1

Recorded remaining at 2 h (compound O=C(NCc1ccncc1)C(=O)N/N=C/c1cccc2ccccc12 ): 86.5

====

Listed molecules paired with reported remaining at 1 h
Run description: Stability in human plasma incubated for 60 mins
Format: ADME, cell-free
Recorded conditions: read-out: Stabilty
Expressed in %, but write only the number.

Molecule: O=C(/C=C/c1cccc2ccccc12)NC(Cn1ccnc1)C(=O)Nc1ccccc1 (configuration not stated)
Observed value: 89.7

Next molecule, remaining at 1 h to be filled in.
// remaining at 1 h value for O=C(NCc1ccncc1)C(=O)N/N=C/c1cccc2ccccc12 : 92.3

====

Each entry below lists one item and its recorded MIC value.
System: Candida albicans
Run description: Antifungal activity against fluconazole-resistant Candida albicans CaR assessed as inhibition of microbial growth by two fold broth microdilution method
Type: functional
Respond numerically; units are µg/mL and should not be typed.

Study these solved cases before continuing.
Compound: CN(CC(=O)NCc1ccncc1)C(=O)/C=C/c1ccc2ccccc2c1
MIC (µg/mL): 8
--
Compound: O=C(NCc1ccncc1)C(=O)N/N=C/c1cccc2ccccc12
MIC (µg/mL): 4

# evaluate next
O=C(/C=C/c1cccc2ccccc12)NC(Cn1ccnc1)C(=O)Nc1ccccc1 (stereo not given) tested on Candida albicans gave MIC: 8
